SYSTEM NAME: human recombinant MAGL (Homo sapiens, UniProt Q99685)
Sequence (Q99685 1-303): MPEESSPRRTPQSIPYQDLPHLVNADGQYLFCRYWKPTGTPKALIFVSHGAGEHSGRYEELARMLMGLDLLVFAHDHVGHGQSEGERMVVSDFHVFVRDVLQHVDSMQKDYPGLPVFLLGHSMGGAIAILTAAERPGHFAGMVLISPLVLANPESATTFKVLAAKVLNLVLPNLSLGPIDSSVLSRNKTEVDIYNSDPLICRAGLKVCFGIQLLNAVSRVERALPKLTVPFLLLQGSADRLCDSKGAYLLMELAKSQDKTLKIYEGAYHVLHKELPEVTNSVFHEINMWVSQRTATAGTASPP
METHOD NOTES: Inhibition of monoacylglycerol lipase
Measured pIC50 accompanies every entry in the list below.
// pIC50 is dimensionless: -log10 of concentration (M)

INSERT INTO measurements (molecule, endpoint_result) VALUES
  ('O=C(NCCCCCn1ccc2ccc(F)cc21)Oc1ccccc1C(=O)O [Compound 37]', 7.42),
  ('Cc1ccncc1OC(=O)NCCCCCn1ccc2ccc(F)cc21 [Compound 46]', 6.82),
  ('N#Cc1cccc(OC(=O)NCCCCCn2ccc3ccc(F)cc32)c1 [Compound 30]', 6.42),
  ('Cc1ccc(OC(=O)NCCCCCn2ccc3ccc(F)cc32)cn1 [Compound 48]', 6.51),
  ('O=C(NCCCCCn1ccc2ccc(F)cc21)Oc1cccnc1 [Compound 44]', 6.77),
  ('Cc1cncc(OC(=O)NCCCCCn2ccc3ccc(F)cc32)c1 [Compound 47]', 6.82);

Task: Look up and state reported pIC50 for O=C(NCCCCCn1ccc2ccc(F)cc21)Oc1ccc(C(=O)O)cc1 [Compound 33]
Result: 5.48

Task: Look up and state reported pIC50 for Cc1ncccc1OC(=O)NCCCCCn1ccc2ccc(F)cc21 [Compound 45]
Result: 6.85

====

METHOD NOTES: Metabolic stability in porcine blood plasma
Type: in vitro ADME
APPLIED CONDITIONS: Table 3; 30 min, 37 °C; n = 3 unless otherwise stated
MEASURE NAME: stability porcine blood plasma (percent of parent remaining) (%)
The response must be a number in % with no trailing unit.

INSERT INTO assay_data (compound, unit_string, endpoint_result) VALUES
  ('O=C(NCCCCCn1ccc2ccc(F)cc21)Oc1ccccc1C(=O)O', '%', 28),
  ('O=C(OC(C(F)(F)F)C(F)(F)F)N1CCN(Cc2ccc(C(F)(F)F)cc2N2CCCC2)CC1 [ABX-1431 (2), reference compound]', '%', 95);

Task: Look up and state reported stability porcine blood plasma (percent of parent remaining) for O=C(O)c1ccc(OC(=O)N2CCC(CCn3ccc4ccc(F)cc43)CC2)cc1
Result: 94

====

METHOD NOTES: Chemical stability in aqueous solution
Format: physicochemical
APPLIED CONDITIONS: PBS buffer pH 7.4 with 0.2% Triton X-100; 60 min, 37 °C
Measured stability in PBS buffer (percent of parent remaining) accompanies every entry in the list below.
The response must be a number in % with no trailing unit.

Consider the reported stability in PBS buffer (percent of parent remaining) for these compounds:
INSERT INTO results (compound_structure, unit_string, endpoint_result) VALUES
  ('Cc1cncc(OC(=O)NCCCCCn2ccc3ccc(F)cc32)c1', '%', 72),
  ('Cc1ccncc1OC(=O)NCCCCCn1ccc2ccc(F)cc21', '%', 74),
  ('O=C(NCCCCCn1ccc2ccc(F)cc21)Oc1ccccc1C(=O)O', '%', 73),
  ('N#Cc1ccccc1OC(=O)NCCCCCn1ccc2ccc(F)cc21', '%', 3);

Task: Look up and state reported stability in PBS buffer (percent of parent remaining) for Cc1ncccc1OC(=O)NCCCCCn1ccc2ccc(F)cc21
Result: 75

Task: Look up and state reported stability in PBS buffer (percent of parent remaining) for O=C(NCCCCCn1ccc2ccc(F)cc21)Oc1cccnc1
Result: 60
